- measuredOn: UniProt:Q03181
- Sequence (Q03181 171-441 limits assumed): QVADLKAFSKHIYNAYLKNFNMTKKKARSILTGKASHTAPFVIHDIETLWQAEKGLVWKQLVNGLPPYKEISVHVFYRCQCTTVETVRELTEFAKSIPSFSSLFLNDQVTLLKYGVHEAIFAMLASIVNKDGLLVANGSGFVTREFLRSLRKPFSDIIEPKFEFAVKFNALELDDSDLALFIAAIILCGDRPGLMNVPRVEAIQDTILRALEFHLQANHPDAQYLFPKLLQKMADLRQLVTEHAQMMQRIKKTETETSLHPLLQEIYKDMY
- testProtocol: In vitro transactivation assay, GAL4-hPPAR luciferase reporter in HEK-293 cells
- conditionParameters: HEK-293, 24 h treatment
# maps each entry to its pEC50
The read-out pEC50 is expressed as -log10 of concentration in moles per litre.

{"columns": ["compound", "measuredOn", "pEC50"],
 "data": [
  ["COc1ccc(/C=C/c2cc(OC)cc(OCCCC(C)(C)C(=O)O)c2)cc1 [ZBH]", "UniProt:Q03181", 4.72]
]}

Prompt: Can you share its pEC50? I mean this compound: CC(C)(Oc1ccc(CCNC(=O)c2ccc(Cl)cc2)cc1)C(=O)O [Bezafibrate, reference compound]
Completion: 4.39

====

- measuredOn: hPPARγ (Homo sapiens, UniProt P37231)
- Sequence (P37231 238-505 limits assumed): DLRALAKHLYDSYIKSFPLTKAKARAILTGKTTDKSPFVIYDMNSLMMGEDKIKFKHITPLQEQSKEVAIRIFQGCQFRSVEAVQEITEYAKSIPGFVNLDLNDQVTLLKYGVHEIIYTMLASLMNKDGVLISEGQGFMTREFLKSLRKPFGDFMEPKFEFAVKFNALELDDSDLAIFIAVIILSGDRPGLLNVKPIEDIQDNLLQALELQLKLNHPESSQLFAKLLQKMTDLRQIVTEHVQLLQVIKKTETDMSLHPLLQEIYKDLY
- testProtocol: In vitro transactivation assay, GAL4-hPPAR luciferase reporter in HEK-293 cells
- conditionParameters: HEK-293, 24 h treatment
experimentalReadout: pEC50
The read-out pEC50 is expressed as -log10 of concentration in moles per litre.

{"columns": ["compound", "pEC50"],
 "data": [
  ["COc1ccc(/C=C/c2cc(OC)cc(OCCCC(C)(C)C(=O)O)c2)cc1 [ZBH]", 4.60]
]}

Below: the item to evaluate.
Prompt: Can you share its pEC50? I mean this compound: CC(C)(Oc1ccc(CCNC(=O)c2ccc(Cl)cc2)cc1)C(=O)O [Bezafibrate, reference compound]
Completion: 4.19

====

- measuredOn: hPPARα (Homo sapiens, UniProt Q07869)
- Sequence (Q07869 200-468 limits assumed): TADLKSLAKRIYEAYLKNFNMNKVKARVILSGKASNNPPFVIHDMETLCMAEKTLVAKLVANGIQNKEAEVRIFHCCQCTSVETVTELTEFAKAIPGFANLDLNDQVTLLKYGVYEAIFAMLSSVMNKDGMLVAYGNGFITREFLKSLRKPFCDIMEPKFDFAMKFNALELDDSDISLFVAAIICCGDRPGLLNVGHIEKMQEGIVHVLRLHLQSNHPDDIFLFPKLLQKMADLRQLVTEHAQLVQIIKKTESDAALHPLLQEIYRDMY
- testProtocol: In vitro transactivation assay, GAL4-hPPAR luciferase reporter in HEK-293 cells
- conditionParameters: HEK-293, 24 h treatment
experimentalReadout: EC50 (nM)
I only need the number, in nM, no unit after it.

Prompt: Can you share its EC50? I mean this molecule: COc1ccc(/C=C/c2cc(OC)cc(OCCCC(C)(C)C(=O)O)c2)cc1
Completion: 1750
